- study.target: Histone acetyltransferase RTT109 (Saccharomyces cerevisiae (strain ATCC 204508 / S288c) (Baker's yeast)) (UniProt Q07794)
- Sequence (Q07794 whole entry): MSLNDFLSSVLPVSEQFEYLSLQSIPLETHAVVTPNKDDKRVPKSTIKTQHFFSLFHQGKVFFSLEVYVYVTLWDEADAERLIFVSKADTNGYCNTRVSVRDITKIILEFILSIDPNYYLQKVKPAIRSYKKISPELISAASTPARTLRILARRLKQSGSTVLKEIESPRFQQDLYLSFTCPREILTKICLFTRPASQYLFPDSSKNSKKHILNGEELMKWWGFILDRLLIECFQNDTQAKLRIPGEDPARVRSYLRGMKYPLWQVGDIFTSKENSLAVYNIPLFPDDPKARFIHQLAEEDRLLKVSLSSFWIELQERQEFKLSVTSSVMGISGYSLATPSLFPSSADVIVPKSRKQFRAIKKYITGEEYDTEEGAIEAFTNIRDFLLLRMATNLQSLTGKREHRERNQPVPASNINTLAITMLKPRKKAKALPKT
- assay.notes: Inhibition of Vps75-stimulated recombinant Saccharomyces cerevisiae histone acetyltransferase Rtt109 assessed as H3K56 acetylated product at […] after 45 mins by Slot bolt inhibiton assay
Activity calls are given as the source filed them. No rule for the calls is given here.
Classes used: active, inactive

O=S1(=O)C=C(Sc2nnc(-c3ccncc3)o2)c2ccccc21	active
O=[N+]([O-])c1ccc(Sc2nnnn2-c2ccccc2)c2nonc12	active
CCC(=O)OCCNc1cc(Sc2nnc(-c3ccccc3)s2)c2nonc2c1[N+](=O)[O-]	active
O=[N+]([O-])c1cccc(S(=O)(=O)Nc2cc(SCc3ccccc3)c(O)c3ccccc23)c1	active
O=[N+]([O-])c1c(Sc2nnnn2-c2ccccc2)cc(Cl)c2nonc12	active
COc1ccc(Cc2nnc(SC3=CS(=O)(=O)c4ccccc43)o2)cc1	active
Cc1ccc(S(=O)(=O)Nc2cc(Sc3nnnn3-c3ccccc3)c(O)c3ccccc23)cc1	active
O=[N+]([O-])c1ccccc1-c1nnc(SC2=CS(=O)(=O)c3ccccc32)o1	active
O=[N+]([O-])c1ccc2nonc2c1Sc1nc2ccccc2[nH]1	active
O=S(=O)(Nc1cc(Sc2ccccc2)c(O)c2ccccc12)c1ccccc1	active
O=S(=O)(Nc1cc(Sc2nc[nH]n2)c(O)c2ccccc12)c1ccc(Br)cc1	active
COc1ccc(N2C(=O)C=CC2=O)cc1	active
O=S(=O)(C[n+]1sc(Nc2ccc(Cl)cc2Cl)nc1-c1ccccc1)c1ccccc1.[Cl-]	active
O=C1CC(Sc2nnc(-c3ccccc3O)o2)C(=O)N1c1ccc(Br)cc1 (stereo unspecified)	active
O=[N+]([O-])c1cc(Br)c2nsnc2c1Sc1ncnc2[nH]cnc12	active
O=S(=O)(Nc1cc(Sc2cccc3cccnc23)c(O)c2ccccc12)c1ccccc1	active
O=C1CC(Sc2nnnn2-c2ccccc2)C(=O)N1c1ccc([N+](=O)[O-])cc1 (stereo unspecified)	active
Cc1ccc(S(=O)(=O)C[n+]2sc(N(c3ccccc3)c3ccccc3)nc2-c2ccccc2)cc1	inactive
O=[N+]([O-])c1ccc(Sc2cccc(Cl)c2)c2nonc12	active
O=C1C=CC(=O)N1c1ccc2ccccc2c1	active
CC(C)(C)c1ccc(S(=O)(=O)Nc2ccc(O)c(Cl)c2)cc1	inactive

Data origin: ChEMBL document CHEMBL3414544
